Reference source for all entries: PubChem BioAssay

# Method: glucagon-like peptide 1 release enhancers, primary assay, NCI-H716 cell line, NPC library (AID 1117341); also: reference of the scale not given here
# Condition Info: NCI-H716 cells, at 10 µM
Activity calls are given as the source filed them.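 The calls were made as follows: active = compound raises GLP1 secretion from the human gut endocrine cells, with no numeric limit stated; inactive = the rest.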
Could you please pick one outcome from this set? yes for active, no for inactive

Exercise: In this assay, the call recorded for O=C1c2ccccc2CCc2ccccc21 was what?
Key: no

Exercise: In this assay, the call recorded for CC1CCCCN1CCCOC(=O)c1ccc(OC2CCCCC2)cc1 (centres undefined) was what?
Key: no

Exercise: In this assay, the call recorded for NC(CSCC(=O)O)C(=O)O (centres undefined) was what?
Key: no

Exercise: In this assay, the call recorded for Cc1ccccc1C(OCCN(C)C)c1ccccc1 (centres undefined) was what?
Key: no

Exercise: In this assay, the call recorded for NCCc1ccc(O)c(O)c1 was what?
Key: no

Exercise: In this assay, the call recorded for Cc1ccccc1N1CCN(CCc2nnc3n2CCCC3)CC1 was what?
Key: no

Exercise: In this assay, the call recorded for Cc1cc(N)c2cc(NC(=O)Nc3ccc4nc(C)cc(N)c4c3)ccc2n1 was what?
Key: yes

Exercise: In this assay, the call recorded for CC(C)C[C@@H]1[C@H](c2ccccc2)OC(=O)N1CCCN1CCCCCC1 was what?
Key: no

Exercise: In this assay, the call recorded for Cc1onc(-c2c(Cl)cccc2Cl)c1C(=O)Cl was what?
Key: no

Exercise: In this assay, the call recorded for Nc1nc2ncc(CNc3ccc(C(=O)N[C@@H](CCC(=O)O)C(=O)O)cc3)nc2c(=O)[nH]1 was what?
Key: no

Exercise: In this assay, the call recorded for CC(C)(Oc1ccc(Cl)cc1)C(=O)OCCCOC(=O)C(C)(C)Oc1ccc(Cl)cc1 was what?
Key: no

Exercise: In this assay, the call recorded for CCc1oc2ccccc2c1C(=O)c1cc(I)c(O)c(I)c1 was what?
Key: no

Exercise: In this assay, the call recorded for O=C(O)Cc1ccccc1Oc1ccc(Cl)cc1Cl was what?
Key: no

Exercise: In this assay, the call recorded for CCCCN(CCN(CCCC)C(=O)N1CCOCC1)C(=O)N1CCOCC1 was what?
Key: no

Exercise: In this assay, the call recorded for Cc1cccc(N(C)C(=S)Oc2ccc3c(c2)CCC3)c1 was what?
Key: no

Exercise: In this assay, the call recorded for CCc1ccc(C(=O)C(C)CN2CCCCC2)cc1 (centres undefined) was what?
Key: no

Exercise: In this assay, the call recorded for Cc1c(Cn2ccnc2)c2ccccc2n1CCC(=O)O was what?
Key: no

Exercise: In this assay, the call recorded for CCCCCOc1ccc(C2SC(=O)NC2=O)cc1OCC (centres undefined) was what?
Key: no

Exercise: In this assay, the call recorded for O=C(O)Cn1c(=O)n(Cc2ccc(Br)cc2F)c(=O)c2ccc(Cl)cc21 was what?
Key: no

Exercise: In this assay, the call recorded for CN(C)CCc1c[nH]c2ccc(C[C@H]3COC(=O)N3)cc12 was what?
Key: no

Exercise: In this assay, the call recorded for CO/N=C(/C(=O)N[C@@H]1C(=O)N2C(C(=O)OCOC(=O)C(C)(C)C)=C(C)CS[C@H]12)c1csc(N)n1 was what?
Key: no

Exercise: In this assay, the call recorded for CN(C)CCCOC1(Cc2ccccc2)CCCCCC1 was what?
Key: no

Exercise: In this assay, the call recorded for CC(C)(C)c1cc(C=O)cc(C(C)(C)C)c1O was what?
Key: no

Exercise: In this assay, the call recorded for CC1COc2c(N3CCN(C)CC3)c(F)cc3c(=O)c(C(=O)O)cn1c23 (centres undefined) was what?
Key: no
